# system: human MPC1L/MPC2 hetero-dimer (Homo sapiens, UniProt O95563+P0DKB6)
# Construct: eight-histidine tag (C, cleaved yes); TEV protease cleavage site (part stays on MPC2 after digestion) (C, cleaved yes)
# procedureDetails: Inhibition of [14C]-pyruvate homo-exchange in MPC1L/MPC2 proteoliposomes
# particulars: MPC1L/MPC2 proteoliposomes, 50 μM [14C]-pyruvate homo-exchange, mean ± s.d.; read-out: IC50 of pyruvate transport inhibition
Below, each entry is listed alongside its reported pIC50.
Please report pIC50 as the negative decimal logarithm of the molar concentration, giving only the number.

Examples with answers:
testSmiles	measuredValue
CCCOc1ccccc1-c1nc2nn[nH]c2c(=O)[nH]1	6.49
O=C(O)c1nn(Cc2ccc(Cl)cc2Cl)c2ccccc12	5.34
N#C/C(=C/c1ccc(-c2ccccc2[N+](=O)[O-])o1)C(=O)O	8.27
CCN(CC)C(=O)/C(C#N)=C/c1cc(O)c(O)c([N+](=O)[O-])c1	6.20

Now, please, on to the next molecule.
Provide the documented pIC50 with human MPC1L/MPC2 hetero-dimer (Homo sapiens, UniProt O95563+P0DKB6) as the system for `O=C1CN(/N=C/c2ccc([N+](=O)[O-])o2)C(=O)N1` 5.48

---

# system: human MPC1L/MPC2 complex (Homo sapiens, UniProt O95563+P0DKB6)
# Construct: eight-histidine tag (C, cleaved yes); TEV protease cleavage site (part stays on MPC2 after digestion) (C, cleaved yes); made in house; host or cells: Saccharomyces cerevisiae SHY15 (mpc triple deletion strain), purified from mitochondria
# Sequence (P0DKB6 2-136): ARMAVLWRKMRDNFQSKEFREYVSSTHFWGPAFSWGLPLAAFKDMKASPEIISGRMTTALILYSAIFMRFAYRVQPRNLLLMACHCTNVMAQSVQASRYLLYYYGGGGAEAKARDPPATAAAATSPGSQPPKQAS
# Sequence (O95563 2-127): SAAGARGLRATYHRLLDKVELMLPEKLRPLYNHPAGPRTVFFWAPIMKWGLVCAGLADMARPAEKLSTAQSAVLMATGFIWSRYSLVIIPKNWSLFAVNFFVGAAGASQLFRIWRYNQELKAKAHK
# procedureDetails: CPM thermostability shift assay, purified MPC1L/MPC2
# Assay type: binding
# particulars: inhibitor 100 μM
measuredProperty: ∆Tm, CPM assay (thermal shift compared to no-ligand control)

molecule	measuredValue
COc1cc(C2Oc3cc([C@H]4Oc5cc(O)cc(O)c5C(=O)[C@@H]4O)ccc3OC2CO)ccc1O (stereo partly shown)	No thermal shifts
O=C(O)c1nn(Cc2ccc(Cl)cc2Cl)c2ccccc12	No thermal shifts

---

Below, each entry is listed alongside its reported ΔTm at 100 µM.
# system: human MPC1L/MPC2 complex (Homo sapiens, UniProt O95563+P0DKB6)
# Construct: eight-histidine tag (C, cleaved yes); TEV protease cleavage site (part stays on MPC2 after digestion) (C, cleaved yes); made in house; host or cells: Saccharomyces cerevisiae SHY15 (mpc triple deletion strain), purified from mitochondria
# procedureDetails: CPM thermostability shift assay, purified MPC1L/MPC2
# Format: binding
# particulars: inhibitor 100 μM; read-out: ∆Tm, CPM assay (thermal shift compared to no-ligand control)
Just the number plus its unit, please.

// returns reported ΔTm at 100 µM for input `N#C/C(=C/c1ccc(-c2cccc(C(F)(F)F)c2)o1)C(=O)O` 8.5 °C

Next up: `C=CCN1C(=O)NC(=O)/C(=C/c2ccc(-c3ccccc3[N+](=O)[O-])o2)C1=O` 7.4 °C

Next up: `O=C(O)C(=Cc1ccc(-c2ccccc2[N+](=O)[O-])o1)C(=O)O` -0.1 °C

Next up: `COc1ccc(/C=C(/C#N)C(=O)O)cc1` 9.1 °C

Next up: `N#C/C(=C/c1ccc(-c2ccc(Br)cc2)o1)C(=O)O` 8.4 °C

Next up: `CN1C(=O)NC(=O)/C(=C/c2ccc(-c3ccccc3[N+](=O)[O-])o2)C1=O` 9.1 °C

Next up: `O=C(O)c1nn(Cc2ccc(Cl)cc2Cl)c2ccccc12` -0.2 °C
